system: HT29 colon; test: NCI-60 one-dose screen, 48 h (100 = growth as untreated, 0 = no growth, -100 = all killed); conditions: 10 µM unless noted
This is part of a sample that, as a whole, favours compounds with a hit. Of some 83,000 tested, about 20% had one in any assay. Active and inactive are the calls of the source. The calls were made as follows: active = growth percent below 10; inactive = the rest.
Consider the following molecules; for each one, report its growth.

Qu. Endpoint output: growth of COc1cc2nc(Nc3ccc(F)cc3)nc(N)c2cc1OC . Value?
Ans. 81% (inactive)

Qu. Endpoint output: growth of COc1ccc(CN2C(=O)/C(=C\c3cc(OC)c(OC)c(OC)c3)c3ccccc32)cc1 . Value?
Ans. 0.194% (active)

Qu. Endpoint output: growth of NC(=S)N/N=C/C(=O)O . Value?
Ans. 80% (inactive)

Qu. Endpoint output: growth of CC(=O)C(C(C)=O)c1nc2sc3cc(Cl)ccc3n2c(=N)c1C#N . Value?
Ans. 92.4% (inactive)

Qu. Endpoint output: growth of O=C1Nc2ccccc2/C1=N/N=C/c1ccsc1 . Value?
Ans. 112% (inactive)

Qu. Endpoint output: growth of CN=C1C=CC(=C(c2ccc(N(C)C)cc2)c2ccc(N(C)C)cc2)C=C1 . Value?
Ans. -37.2% (active)

Qu. Endpoint output: growth of Nc1c(-c2nc3ccccc3c(=O)[nH]2)nnn1-c1ccc(Cl)cc1 . Value?
Ans. 68.7% (inactive)

Qu. Endpoint output: growth of COc1ccccc1C(=O)NC(=S)Nc1ccc(-c2nc3ccccc3[nH]2)cc1 . Value?
Ans. 14.8% (inactive)

Qu. Endpoint output: growth of CC1(C)N=C(N)N=C(N)N1c1ccc(Cl)c(Cl)c1 . Value?
Ans. 36.2% (inactive)

Qu. Endpoint output: growth of N#C/C=C(\c1ccc([N+](=O)[O-])cc1)n1nnc2cc(Cl)c(Cl)cc21 . Value?
Ans. 3.93% (active)

Qu. Endpoint output: growth of COc1ccc(-c2nnc(SCC(=O)NC3=NN=C(c4ccccc4)CS3)o2)cc1 . Value?
Ans. 96.1% (inactive)

Qu. Endpoint output: growth of C/C(=N\NC(=O)Cn1c(-c2ccc(S(C)(=O)=O)cc2)nc2cc(Cl)ccc21)c1ccc(Cl)cc1 . Value?
Ans. 79.7% (inactive)

Qu. Endpoint output: growth of NS(=O)(=O)Oc1ccc(-c2sc3cc(O)ccc3c2C(=O)c2ccc(OCCN3CCCCC3)cc2)cc1 . Value?
Ans. 0.722% (active)

Qu. Endpoint output: growth of O=C1Nc2ccccc2SC1c1ccccc1Cl (stereo unspecified) . Value?
Ans. 46% (inactive)

Qu. Endpoint output: growth of Cc1nc(Nc2ccc(S(=O)(=O)Nc3cc(C)on3)cc2)c2ccccc2n1 . Value?
Ans. 98.6% (inactive)

Qu. Endpoint output: growth of CCN(CC)CCCNC(=O)c1ccc(N)cc1 . Value?
Ans. 100% (inactive)

Qu. Endpoint output: growth of Cc1nc(Nc2ccc(NC(=S)Nc3ccccc3)cc2)c2ccccc2n1 . Value?
Ans. 107% (inactive)

Qu. Endpoint output: growth of C=C(C)[C@@H]1CC[C@@]2(C(=O)O)CC[C@]3(C)C(CCC4[C@@]5(C)CCC(OS(=O)(=O)c6ccccc6)C(C)(C)C5CC[C@]43C)C12 (stereo partly specified) . Value?
Ans. 58.4% (inactive)

Qu. Endpoint output: growth of CCNCCNc1cc(-c2cccc(C(F)(F)F)c2)c(C#N)c2nc3ccccc3n12 . Value?
Ans. -82.5% (active)

Qu. Endpoint output: growth of CCOC(=O)C(=CNc1ccccc1[N+](=O)[O-])C(=O)OCC . Value?
Ans. 92.6% (inactive)

Qu. Endpoint output: growth of COC(=O)CNC(=O)C(=O)c1c(O)c(O)c(C(C)C)c2cc(C)c(-c3c(C)cc4c(C(C)C)c(O)c(O)c(C(=O)C(=O)NCC(=O)OC)c4c3O)c(O)c12 . Value?
Ans. 6.08% (active)
